targetSystem: T1, recombinant human VEGF165 (human, UniProt P15692-4 27-191, biotinylated in the competition assays)
T1 construct: Bought protein; also called hVEGF165; rhVEGF165
T1 sequence (P15692 other isoform, or with tags, fused parts or gaps): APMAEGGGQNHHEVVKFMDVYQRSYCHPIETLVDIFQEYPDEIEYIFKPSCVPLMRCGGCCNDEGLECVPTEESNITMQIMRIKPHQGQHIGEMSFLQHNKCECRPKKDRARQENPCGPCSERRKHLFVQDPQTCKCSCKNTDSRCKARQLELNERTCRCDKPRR
experimentalDetails: AlphaScreen, hVEGF165/hVEGFR1-Fc competition
Parameters: concentration or dose not given beside the values
A collection of binders and their measured % inhibition
State just the number; it will be interpreted in %.

Consider the reported % inhibition for these binders:
binder: VEGFBII022 (VHH, not shown: small tags and cut ends, Bivalent (heterodimeric) anti-VEGF VHH; also called VEGFBII23B04-9GS-5B05) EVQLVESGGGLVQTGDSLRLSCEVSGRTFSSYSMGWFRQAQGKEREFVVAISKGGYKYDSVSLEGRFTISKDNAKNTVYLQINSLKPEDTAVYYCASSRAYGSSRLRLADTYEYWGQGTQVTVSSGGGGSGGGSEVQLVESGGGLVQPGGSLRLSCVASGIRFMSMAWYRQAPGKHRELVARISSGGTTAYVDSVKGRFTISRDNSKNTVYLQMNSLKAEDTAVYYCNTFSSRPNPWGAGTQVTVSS
resultUnit: %
% inhibition: 98

binder: VEGFBII010 (VHH, not shown: small tags and cut ends, Homodimeric bivalent anti-VEGF VHH; also called VEGFBII23B04-35GS-23B04) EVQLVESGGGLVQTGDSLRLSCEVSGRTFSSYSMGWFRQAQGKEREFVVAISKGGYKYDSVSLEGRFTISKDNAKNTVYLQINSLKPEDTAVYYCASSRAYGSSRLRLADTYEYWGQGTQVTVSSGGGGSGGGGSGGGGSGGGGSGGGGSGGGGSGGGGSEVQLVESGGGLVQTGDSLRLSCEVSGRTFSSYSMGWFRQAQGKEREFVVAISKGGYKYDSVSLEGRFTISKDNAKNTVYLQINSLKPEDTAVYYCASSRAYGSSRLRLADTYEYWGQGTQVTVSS
resultUnit: %
% inhibition: 70

binder: VEGFBII023 (VHH, not shown: small tags and cut ends, Bivalent anti-VEGF VHH; also called VEGFBII23B04-40GS-10E07) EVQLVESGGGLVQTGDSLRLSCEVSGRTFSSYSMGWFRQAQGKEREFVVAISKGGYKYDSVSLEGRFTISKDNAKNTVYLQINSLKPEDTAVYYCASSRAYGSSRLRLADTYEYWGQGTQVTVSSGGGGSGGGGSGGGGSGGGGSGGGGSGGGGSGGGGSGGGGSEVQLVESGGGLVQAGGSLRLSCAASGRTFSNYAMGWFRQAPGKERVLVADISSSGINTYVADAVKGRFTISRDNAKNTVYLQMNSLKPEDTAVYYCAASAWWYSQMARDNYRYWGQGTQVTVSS
resultUnit: %
% inhibition: 87

binder: VEGFBII024 (VHH, not shown: small tags and cut ends, Bivalent anti-VEGF VHH; also called VEGFBII23B04-40GS-86H09) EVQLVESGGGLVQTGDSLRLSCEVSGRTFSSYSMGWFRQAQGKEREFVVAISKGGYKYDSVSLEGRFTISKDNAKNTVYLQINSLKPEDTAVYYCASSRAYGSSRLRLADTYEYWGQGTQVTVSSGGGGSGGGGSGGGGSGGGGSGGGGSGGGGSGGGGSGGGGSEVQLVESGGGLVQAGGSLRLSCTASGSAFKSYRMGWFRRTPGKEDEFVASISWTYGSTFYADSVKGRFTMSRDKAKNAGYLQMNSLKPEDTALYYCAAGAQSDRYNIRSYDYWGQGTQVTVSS
resultUnit: %
% inhibition: 98

QUERY: Entry VEGFBII025 (VHH, not shown: small tags and cut ends, Bivalent anti-VEGF VHH; also called VEGFBII10E07-40GS-23B04) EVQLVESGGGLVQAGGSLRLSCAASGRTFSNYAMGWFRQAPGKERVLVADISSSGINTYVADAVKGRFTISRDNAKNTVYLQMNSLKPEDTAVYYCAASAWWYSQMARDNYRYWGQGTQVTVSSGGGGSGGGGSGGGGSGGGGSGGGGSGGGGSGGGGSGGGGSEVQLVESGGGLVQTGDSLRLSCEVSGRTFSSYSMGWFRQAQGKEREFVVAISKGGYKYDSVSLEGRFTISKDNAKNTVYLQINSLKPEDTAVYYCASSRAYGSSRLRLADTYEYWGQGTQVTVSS has what % inhibition?
RESULT: 82

QUERY: Try VEGFBII021 (VHH, not shown: small tags and cut ends, Bivalent (heterodimeric) anti-VEGF VHH; also called VEGFBII23B04-40GS-5B05) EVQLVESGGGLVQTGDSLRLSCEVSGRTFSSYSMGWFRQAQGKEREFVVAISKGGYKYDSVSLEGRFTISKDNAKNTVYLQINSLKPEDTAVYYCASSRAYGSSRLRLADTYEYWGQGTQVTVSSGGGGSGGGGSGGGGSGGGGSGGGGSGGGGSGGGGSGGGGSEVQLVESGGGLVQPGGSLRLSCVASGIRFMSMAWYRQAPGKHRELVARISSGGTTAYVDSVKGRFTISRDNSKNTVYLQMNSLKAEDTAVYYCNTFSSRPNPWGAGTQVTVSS next.
RESULT: 100
